test: Tissue half-life (t1/2) and Cmax in plasma, brain, kidney and liver after oral administration to CD-1 mice; format: in vivo, mouse; conditions: male, mouse, brain t1/2, 30 mg/kg oral gavage (PO), read-out: Half-Lives (h) Brain (converted)
Recorded measurements of half-life, one per entry
Note: unit h is implicit; provide only the numeric part.

Reference set (5 entries):
COc1ccc(CCn2c(-c3ccncc3)nc3cc(NC(=N[C@H]4C[C@H]5C[C@@H]([C@@H]4C)C5(C)C)N4CCN[C@@H](CF)C4)ccc3c2=O)c(F)c1 :: 3
C[C@@H]1[C@@H](N=C(Nc2ccc3c(=O)n(CCc4ccc(Br)cc4F)c(-c4cnccn4)nc3c2)N2CCN[C@@H](C(F)F)C2)C[C@H]2C[C@@H]1C2(C)C :: 15
COc1ccc(CCn2c(CN3CCN(C)CC3)nc3cc(NC(=N[C@H]4C[C@H]5C[C@@H]([C@@H]4C)C5(C)C)N4CC(=O)N[C@@H](C)C4)ccc3c2=O)c(F)c1 :: 3.6
C[C@@H]1[C@@H](N=C(Nc2ccc3c(=O)n(CCc4ccc(Cl)cc4)c(-c4cnccn4)nc3c2)N2CC(=O)N[C@@H](C)C2)C[C@H]2C[C@@H]1C2(C)C :: 8
COc1ccc(CCn2c(-c3cccnc3)nc3cc(NC(=N[C@H]4C[C@H]5C[C@@H]([C@@H]4C)C5(C)C)N4CCN(O)[C@@H](C)C4)ccc3c2=O)c(F)c1 :: 3.1

compound "COc1ccc(CCn2c(-c3cccnc3)nc3cc(NC(=N[C@H]4C[C@H]5C[C@@H]([C@@H]4C)C5(C)C)N4CCN(CC#N)[C@@H](C)C4)ccc3c2=O)c(F)c1" , half-life observed: 12

For COc1ccc(CCn2c(-c3cccnc3)nc3cc(N/C(=N/C4C[C@H]5C[C@@H]([C@@H]4C)C5(C)C)N4CCN(C#N)[C@@H](C)C4)ccc3c2=O)c(F)c1 (some centres unmarked) the compound record lists half-life as 5.8

Reported half-life of "COc1ccc(CCn2c(-c3cccnc3)nc3cc(NC(=N[C@H]4C[C@H]5C[C@@H]([C@@H]4C)C5(C)C)N4CCN[C@@H](CF)C4)ccc3c2=O)c(F)c1" : 14

The recorded half-life for "C[C@@H]1[C@@H](N=C(Nc2ccc3c(=O)n(CCc4ccc(Cl)cc4)c(-c4cnccn4)nc3c2)N2CCN[C@@H](C(F)F)C2)C[C@H]2C[C@@H]1C2(C)C" is 6.1

The compound listed as C[C@@H]1C(/N=C(/Nc2ccc3c(=O)n(CCc4ccc(Cl)cc4Cl)c(-c4cnccn4)nc3c2)N2CC(=O)N[C@@H](C)C2)C[C@H]2C[C@@H]1C2(C)C (some centres unmarked) has a reported half-life of 13

Field half-life (entry "COc1ccc(CCn2c(N3CCOCC3)nc3cc(NC(=N[C@H]4C[C@H]5C[C@@H]([C@@H]4C)C5(C)C)N4CC(=O)N[C@@H](C)C4)ccc3c2=O)c(F)c1" ) reads 6.9

* * *

assay: Tissue half-life (t1/2) and Cmax in plasma, brain, kidney and liver after oral administration to CD-1 mice; type: in vivo, mouse; settings: male, mouse, liver t1/2, 30 mg/kg oral gavage (PO), read-out: Half-Lives (h) Liver (converted)
Category | rule: reported half-life within range, see one: < 3 h; two: ≥ 3 h and < 5 h; three: ≥ 5 h

Past entries and their recorded results:
COc1ccc(CCn2c(-c3cccnc3)nc3cc(N/C(=N/C4C[C@H]5C[C@@H]([C@@H]4C)C5(C)C)N4CCN(C#N)[C@@H](C)C4)ccc3c2=O)c(F)c1 (some centres unmarked) [Example 246] :: three
COc1ccc(CCn2c(-c3cccnc3)nc3cc(NC(=N[C@H]4C[C@H]5C[C@@H]([C@@H]4C)C5(C)C)N4CCN(CC#N)[C@@H](C)C4)ccc3c2=O)c(F)c1 [Example 247] :: three
C[C@@H]1[C@@H](N=C(Nc2ccc3c(=O)n(CCc4ccc(Cl)cc4)c(-c4cnccn4)nc3c2)N2CCN[C@@H](C(F)F)C2)C[C@H]2C[C@@H]1C2(C)C [Example 235] :: three
C[C@@H]1[C@@H](N=C(Nc2ccc3c(=O)n(CCc4ccc(Cl)cc4)c(-c4cnccn4)nc3c2)N2CC(=O)N[C@@H](C)C2)C[C@H]2C[C@@H]1C2(C)C [Example 222] :: one
COc1ccc(CCn2cnc3cc(N/C(=N/[C@H]4C[C@@H]5C[C@H]([C@@H]4C)C5(C)C)N4C[C@@H](C)N(C#N)[C@@H](C)C4)ccc3c2=O)c(F)c1 [Example 301] :: two

Exercise: read the entry COc1ccc(CCn2c(-c3cccnc3)nc3cc(NC(=N[C@H]4C[C@H]5C[C@@H]([C@@H]4C)C5(C)C)N4CC(=O)N[C@@H](C)C4)ccc3c2=O)c(F)c1 [Example 216] and state which class it falls under.
one

Field: class (half-life) — entry: COc1ccc(CCn2c(-c3cccnc3)nc3cc(NC(=N[C@H]4C[C@H]5C[C@@H]([C@@H]4C)C5(C)C)N4CCN[C@@H](C(F)F)C4)ccc3c2=O)c(F)c1 [Example 220]
one

Band of COc1ccc(CCn2c(NC3CC3)nc3cc(NC(=N[C@H]4C[C@H]5C[C@@H]([C@@H]4C)C5(C)C)N4CC(=O)N[C@@H](C)C4)ccc3c2=O)c(F)c1 [Example 224] ?
two

Hi, small favor: classify C[C@@H]1[C@@H](N=C(Nc2ccc3c(=O)n(CCc4ccc(Br)cc4)c(-c4cnccn4)nc3c2)N2CCN[C@@H](C(F)F)C2)C[C@H]2C[C@@H]1C2(C)C [Example 231] by its half-life when you get a moment.
two

# classify by half-life band: COc1ccc(CCn2c(N3CCOCC3)nc3cc(NC(=N[C@H]4C[C@H]5C[C@@H]([C@@H]4C)C5(C)C)N4CC(=O)N[C@@H](C)C4)ccc3c2=O)c(F)c1 [Example 221]
one
